Target: panel of more than 300 wild-type and mutant kinases (313 kinase panel) (Homo sapiens)
Sequence (Q96PF2 1-358): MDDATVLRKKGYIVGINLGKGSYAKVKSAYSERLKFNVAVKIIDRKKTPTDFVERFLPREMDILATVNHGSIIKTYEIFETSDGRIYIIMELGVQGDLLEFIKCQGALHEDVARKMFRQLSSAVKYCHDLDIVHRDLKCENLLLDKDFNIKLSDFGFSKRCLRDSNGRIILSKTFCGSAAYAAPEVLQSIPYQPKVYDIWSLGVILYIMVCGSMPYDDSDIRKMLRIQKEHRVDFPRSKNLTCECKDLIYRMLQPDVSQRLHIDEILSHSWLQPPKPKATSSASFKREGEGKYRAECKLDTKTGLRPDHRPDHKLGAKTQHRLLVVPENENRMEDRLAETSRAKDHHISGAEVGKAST
Test: Kinase profiling in a biochemical assay panel (mobility shift assays and ELISA), %-inhibition at 1 μM; selectivity entropy
Settings: kinase TSSK2; 1 μM
measured.endpoint: %-inhibition of TSSK2 (%)
Kindly answer with a numeric value in %, unit omitted.

Recorded results for 3 compounds are shown here.
{"test.smiles": "CO[C@H]1C[C@@H]2CC[C@@H](C)[C@@](O)(O2)C(=O)C(=O)N2CCCC[C@H]2C(=O)O[C@H]([C@H](C)C[C@@H]2CC[C@@H](OCCO)[C@H](OC)C2)CC(=O)[C@H](C)/C=C(\\C)[C@@H](O)[C@@H](OC)C(=O)[C@H](C)C[C@H](C)/C=C/C=C/C=C/1C", "%-inhibition of TSSK2 / %": -11}
{"test.smiles": "CC(=O)Nc1cccc(-n2c(=O)n(C3CC3)c(=O)c3c(Nc4ccc(I)cc4F)n(C)c(=O)c(C)c32)c1", "%-inhibition of TSSK2 / %": -1.73}
{"test.smiles": "O=S(=O)(c1cccc2cnccc12)N1CCCNCC1", "%-inhibition of TSSK2 / %": -0.28}

Quickly give me recorded %-inhibition of TSSK2 for CS(=O)(=O)CCNCc1ccc(-c2ccc3ncnc(Nc4ccc(OCc5cccc(F)c5)c(Cl)c4)c3c2)o1
-7.54

Identify %-inhibition of TSSK2 associated with the compound CCCS(=O)(=O)Nc1ccc(F)c(C(=O)c2c[nH]c3ncc(-c4ccc(Cl)cc4)cc23)c1F
-11

Consider the compound Cc1ccc(Nc2nccc(N(C)c3ccc4c(C)n(C)nc4c3)n2)cc1S(N)(=O)=O . State its measured %-inhibition of TSSK2.
-2.46

Entry source: paper PMC3961306
